The measured values listed here are drawn from ChEMBL document CHEMBL1143149.

MEASUREMENT NOTES: Enhancement of DNA binding affinity in presence of Cu2+/Ni2+
Active and inactive are the calls of the source. No cut-off for these calls is given here.
VALUE KIND: Activity

Sample records with Activity:
| LINE NOTATION | RESULT |
| --- | --- |
| COC(=O)c1cccc2oc(-c3ccccc3O)nc12 | Active |
| CNC(=O)c1cccc2oc(-c3ccccc3O)nc12 | Active |
| CCCCNC(=O)c1cccc2oc(-c3ccccc3O)nc12 | Active |
| CCOC(=O)c1cccc2oc(-c3ccccc3O)nc12 | Active |
| O=C(NCCOCCO)c1cccc2oc(-c3ccccc3O)nc12 | inactive |
| O=C(NCCCCCCO)c1cccc2oc(-c3ccccc3O)nc12 | inactive |

Continue with the compound presented below.
-- ask Report Activity, nothing else, for this compound: O=C(OCCOCCOCCOCCO)c1cccc2oc(-c3ccccc3O)nc12
-- reply Active
